# Tested on: Human immunodeficiency virus 1
# experimentalDetails: Antiviral activity against HIV1 in HEK293T cells
# Type: functional, organism-based
# conditionSet: Human immunodeficiency virus 1, HEK-293T
pEC50: −log10 of the molar value.
readout: pEC50

Challenge: What does the data say about its pEC50? Entry: O=C1Nc2ccc(Cl)cc2[C@@]12C[C@@H]2c1cccnc1
Response given: < 5.00

* * *

# Tested on: Human immunodeficiency virus 1
# experimentalDetails: Antiviral activity against HIV1 in HEK293T cells
# Assay type: functional, organism-based
# conditionSet: Human immunodeficiency virus 1, HEK-293T
readout: EC50

Here's what some known entries look like.
{"columns": ["smi", "assayResult"],
 "data": [
  ["O=C1Nc2ccc(Cl)cc2[C@@]12C[C@@H]2c1cc([N+](=O)[O-])cs1", "> 10 µM"],
  ["O=C1Nc2ccc(Cl)cc2[C@@]12C[C@@H]2c1ccc2ccccc2c1", "> 10 µM"]
]}

Challenge: What does the data say about its EC50? Entry: O=C1Nc2ccc(Cl)cc2[C@@]12C[C@@H]2c1nn[nH]n1
Response given: > 10 µM
